Where do the numbers come from? From patent US11186589B2.

# testTarget: NIK/MAP3K14 (Homo sapiens (Human))
# experimentNotes: Inhibition of auto-phosphorylation of recombinant human NF-kappaB-inducing kinase (NIK/MAP3K14) activity (AlphaScreen)
# Assay type: biochemical
# runParameters: averaged values over all measurements on all batches, 25 microM ATP
assayMetric: IC50 (nM)
Unit nM implied. Number only.

Here is how some compounds turned out for IC50.
compound | measuredResult
COc1nc2c(cc1Nc1nccc(-c3cc(C#N)c4c(c3)[C@@](C)(CO)CN4)n1)COCC2 | 1.7
Cn1nc2c(c1Nc1nccc(-c3cc(C#N)c4c(c3)C(C)(CO)CN4)n1)CCC2 (stereo not shown) | 8.5
CN(C)C(=O)C1COc2c(cc(Cl)cc2Nc2nccc(-c3cc(C#N)c4c(c3)[C@@](C)(CO)CN4)n2)C1 (stereo partly shown) [Compound 12] | 14.1

Incoming: Provide one value: measured IC50 of CN(C)C1COc2c(cc(Cl)cc2Nc2nccc(-c3cc(C#N)c4c(c3)[C@@](C)(CO)CN4)n2)C1 (stereo partly shown) [Compound 18]
Outgoing: 4.1

====

# testTarget: NIK/MAP3K14 (Homo sapiens (Human), UniProt Q99558)
# Sequence (Q99558 whole entry): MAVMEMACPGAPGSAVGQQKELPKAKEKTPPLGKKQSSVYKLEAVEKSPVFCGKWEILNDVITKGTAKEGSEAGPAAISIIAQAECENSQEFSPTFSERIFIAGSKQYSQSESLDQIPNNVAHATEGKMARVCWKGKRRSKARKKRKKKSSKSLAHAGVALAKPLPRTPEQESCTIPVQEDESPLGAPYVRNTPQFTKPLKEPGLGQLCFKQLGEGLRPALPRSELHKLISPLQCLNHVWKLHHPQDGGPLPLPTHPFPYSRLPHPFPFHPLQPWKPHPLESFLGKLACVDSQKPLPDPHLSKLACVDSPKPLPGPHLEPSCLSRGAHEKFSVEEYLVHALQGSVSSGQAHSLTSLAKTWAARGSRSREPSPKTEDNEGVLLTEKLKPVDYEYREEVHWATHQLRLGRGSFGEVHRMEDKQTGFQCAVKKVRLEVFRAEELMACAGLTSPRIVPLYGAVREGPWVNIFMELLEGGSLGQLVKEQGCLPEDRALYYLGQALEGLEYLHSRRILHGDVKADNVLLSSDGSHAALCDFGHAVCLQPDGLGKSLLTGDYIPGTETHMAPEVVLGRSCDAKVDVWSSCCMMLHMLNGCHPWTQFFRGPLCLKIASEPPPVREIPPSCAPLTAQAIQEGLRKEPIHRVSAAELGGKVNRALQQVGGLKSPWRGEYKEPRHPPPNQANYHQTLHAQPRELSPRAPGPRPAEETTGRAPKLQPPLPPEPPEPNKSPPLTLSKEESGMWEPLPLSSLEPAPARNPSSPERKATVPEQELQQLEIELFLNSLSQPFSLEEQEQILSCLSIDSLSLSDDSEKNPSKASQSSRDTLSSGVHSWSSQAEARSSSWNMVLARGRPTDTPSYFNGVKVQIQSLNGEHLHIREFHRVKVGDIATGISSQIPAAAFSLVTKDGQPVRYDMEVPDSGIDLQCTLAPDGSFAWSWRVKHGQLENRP
# experimentNotes: Inhibition of auto-phosphorylation of recombinant human NF-kappaB-inducing kinase (NIK/MAP3K14) activity (AlphaScreen)
# Assay type: biochemical
# runParameters: averaged values over all measurements on all batches, 25 microM ATP
assayMetric: IC50 (nM)
I only need the number, in nM, no unit after it.

compound | measuredResult
CC1CC(C)n2ncc(Nc3nccc(-c4cc(C#N)c5c(c4)C(C)(CO)CN5)n3)c2O1 (racemic) [Compound 20b] | 6.2
COCCCc1nc2c(cc1Nc1nccc(-c3cc(C#N)c4c(c3)[C@@](C)(CO)CN4)n1)COCC2 | 8.1
CC(C)C1CCn2ncc(Nc3nccc(-c4cc(C#N)c5c(c4)[C@@](C)(CO)CN5)n3)c2O1 (single isomer, unassigned) [Compound 22b] | 7.1
CC(=O)N1CCc2c1ccc(Nc1nccc(-c3cc(C#N)c4c(c3)C(C)(CO)CN4)n1)c2F (stereo not shown) | 3.7
CC1CCn2ncc(Nc3nccc(-c4cc(C#N)c5c(c4)[C@@](C)(CO)CN5)n3)c2O1 (single isomer, unassigned) [Compound 2b] | 2
CC1(CO)CNc2c(C#N)cc(-c3ccnc(Nc4ccc5c(c4)C(F)(F)CCO5)n3)cc21 (stereo not shown) | 5.9

Incoming: Return the recorded IC50 value; entry: COCCCc1cc2c(cc1Nc1nccc(-c3cc(C#N)c4c(c3)[C@@](C)(CO)CN4)n1)CCN(C)CC2
Outgoing: 20.4

====

# IC50 annotations
# testTarget: NIK/MAP3K14 (Homo sapiens (Human))
# experimentNotes: Inhibition of auto-phosphorylation of recombinant human NF-kappaB-inducing kinase (NIK/MAP3K14) activity (AlphaScreen)
# Type: biochemical
# runParameters: averaged values over all measurements on all batches, 25 microM ATP
Number in nM, nothing else.

Worked cases, answers included:
compound | IC50, nM
CC1(CO)COc2c(Nc3nccc(-c4cc(C#N)c5c(c4)[C@@](C)(CO)CN5)n3)cnn2C1 (mixture of isomers) [Compound 31b] | 5
CC1(CO)CNc2c(C#N)cc(-c3ccnc(Nc4ccc5c(c4)CC(CO)OC5)n3)cc21 (single isomer, unassigned) [Compound 8] | 2

Here's the next entry for you.
Incoming: Fill in IC50 for record CC1(CO)CNc2c(C#N)cc(-c3ccnc(Nc4cc(Cl)cc5c4ccn5CCCN4CCOCC4)n3)cc21 (stereo not drawn)
Outgoing: 12

====

# testTarget: NIK/MAP3K14 (Homo sapiens (Human), UniProt Q99558)
# experimentNotes: Inhibition of auto-phosphorylation of recombinant human NF-kappaB-inducing kinase (NIK/MAP3K14) activity (AlphaScreen)
# Assay type: biochemical
# runParameters: averaged values over all measurements on all batches, 25 microM ATP
# Description: Inhibition of Auto-Phosphorylation of Recombinant Human NF-kappaB-Inducing Kinase ([…]) Activity (AlphaScreen®) NIK/MAP3K14 auto-phosphorylation activity was measured using the AlphaScreen® (αscreen) format (Perkin Elmer). All compounds tested were dissolved in dimethyl sulfoxide (DMSO) and further dilutions were made in assay buffer. […] Protein A Acceptor and Glutathione-Donor beads were added before reading using an EnVision® Multilabel Plate Reader (Perkin Elmer). […]
This section presents compounds with their documented IC50 values.
Give the number; nM is assumed, so skip it.

compound | readoutUnit | IC50
Cc1cc2c(cc1Nc1nccc(-c3cc(C#N)c4c(c3)[C@@](C)(CO)CN4)n1)CCN(C)CC2 | nM | 4.8
CN1CCn2ncc(Nc3nccc(-c4cc(C#N)c5c(c4)[C@@](C)(CO)CN5)n3)c2C1 [Compound 15b] | nM | 3.5
COCCCn1ccc2c(Nc3nccc(-c4cc(C#N)c5c(c4)C(C)(CO)CN5)n3)cc(Cl)cc21 (stereo not drawn) | nM | 34.8
CNC(=O)CCn1ccc2c(Nc3nccc(-c4cc(C#N)c5c(c4)C(C)(C)CN5)n3)cc(Cl)cc21 | nM | 30.2
COc1cc2[nH]ccc2cc1Nc1nccc(-c2cc(C#N)c3c(c2)C(C)(CO)CN3)n1 (stereo not drawn) [Compound 13c] | nM | 6.2

Incoming: Identify measured IC50 corresponding to CC1OCCn2nc(Nc3nccc(-c4cc(C#N)c5c(c4)C(C)(CO)CN5)n3)cc21 (stereo not drawn)
Outgoing: 5.9

Incoming: Quick one: give measured IC50 for Cn1c2c(cc(Nc3nccc(-c4cc(C#N)c5c(c4)[C@@](C)(CO)CN5)n3)c1=O)COCC2
Outgoing: 1.6

====

# testTarget: NIK/MAP3K14 (Homo sapiens (Human), UniProt Q99558)
# experimentNotes: Inhibition of auto-phosphorylation of recombinant human NF-kappaB-inducing kinase (NIK/MAP3K14) activity (AlphaScreen)
# Type: biochemical
# runParameters: averaged values over all measurements on all batches, 25 microM ATP
# Experimental: Inhibition of Auto-Phosphorylation of Recombinant Human NF-kappaB-Inducing Kinase ([…]) Activity (AlphaScreen®) NIK/MAP3K14 auto-phosphorylation activity was measured using the AlphaScreen® (αscreen) format (Perkin Elmer). All compounds tested were dissolved in dimethyl sulfoxide (DMSO) and further dilutions were made in assay buffer. […] Protein A Acceptor and Glutathione-Donor beads were added before reading using an EnVision® Multilabel Plate Reader (Perkin Elmer). […]
assayMetric: IC50 (nM)
Answer in nM, number only, no unit symbol.

// below: answered compounds
compound | assayMetric | readoutUnit | measuredResult
CN1CCn2ncc(Nc3nccc(-c4cc(C#N)c5c(c4)[C@@](C)(CO)CN5)n3)c2C1=O [Compound 3b] | IC50 | nM | 1
CC1CC(C)n2ncc(Nc3nccc(-c4cc(C#N)c5c(c4)C(C)(CO)CN5)n3)c2O1 (racemic) [Compound 21b] | IC50 | nM | 5.9

Incoming: Return the recorded IC50 value; entry: CN(C)C(=O)C1Cc2cc(Nc3nccc(-c4cc(C#N)c5c(c4)C(C)(C)CN5)n3)ccc2N1 (stereo not shown) [Compound 43]
Outgoing: 6.6

Incoming: Please supply the value of reported IC50 for the item CN1CCn2nc(Nc3nccc(-c4cc(C#N)c5c(c4)C(C)(CO)CN5)n3)cc2C1 (stereo not shown) [Compound 9b]
Outgoing: 6.8

====

# testTarget: NIK/MAP3K14 (Homo sapiens (Human))
# experimentNotes: Inhibition of auto-phosphorylation of recombinant human NF-kappaB-inducing kinase (NIK/MAP3K14) activity (AlphaScreen)
# Format: biochemical
# runParameters: averaged values over all measurements on all batches, 25 microM ATP
Below: a set of entries, each annotated with reported IC50.

Example results:
compound | IC50
CC1CCCn2ncc(Nc3nccc(-c4cc(C#N)c5c(c4)[C@@](C)(CO)CN5)n3)c2O1 (single isomer, unassigned) [Compound 29b] | 3.9 nM
Cc1c(Nc2nccc(-c3cc(C#N)c4c(c3)[C@@](C)(CO)CN4)n2)ccc2c1CCN2C(=O)CN(C)C [Compound 15] | 2.5 nM
CC1OCCn2nc(Nc3nccc(-c4cc(C#N)c5c(c4)C(C)(C)CN5)n3)cc21 (stereo not shown) [Compound 32b] | 5.9 nM

Now look at this one.
Incoming: Tell me its IC50 given CCCCCc1cc2c(cc1Nc1nccc(-c3cc(C#N)c4c(c3)[C@@](C)(CO)CN4)n1)CCN(C)CC2 (mixture of isomers) [Compound 27] as the entry.
Outgoing: 7.1 nM

====

# System: JJN-3 cells
# experimentNotes: Antiproliferative activity on JJN-3 (NIK translocated) multiple myeloma cells (CellTiter-Glo)
# Format: cell-based, human
# runParameters: JJN-3 (NIK translocated) cells, 96 hr treatment, averaged values, read-out: JJN-3 Proliferation inhibition (IC50 (nM))
assayMetric: IC50 (nM)
Report the figure in nM without appending any unit label.

compound | assayMetric | measuredResult
CC1(CO)CNc2c(C#N)cc(-c3ccnc(Nc4ccc5c(c4)CC(CO)OC5)n3)cc21 (single isomer, unassigned) | IC50 | 41
CC(C)C1CCn2ncc(Nc3nccc(-c4cc(C#N)c5c(c4)[C@@](C)(CO)CN5)n3)c2O1 (single isomer, unassigned) [Compound 23b] | IC50 | 45
CC(C)C1CCn2ncc(Nc3nccc(-c4cc(C#N)c5c(c4)[C@@](C)(CO)CN5)n3)c2O1 (single isomer, unassigned) [Compound 22b] | IC50 | 166
CN(C)C1COc2c(cc(Cl)cc2Nc2nccc(-c3cc(C#N)c4c(c3)[C@@](C)(CO)CN4)n2)C1 (stereo partly drawn) [Compound 17] | IC50 | 5
CC1CCCn2ncc(Nc3nccc(-c4cc(C#N)c5c(c4)[C@@](C)(CO)CN5)n3)c2O1 (single isomer, unassigned) [Compound 29b] | IC50 | 85

Incoming: Read off the recorded IC50 for CC1CCCn2ncc(Nc3nccc(-c4cc(C#N)c5c(c4)[C@@](C)(CO)CN5)n3)c2O1 (single isomer, unassigned) [Compound 30b]
Outgoing: 263
